target: Human Full Length PARG (Homo sapiens (Human), UniProt Q86W56); assay: PARG enzyme assay (TR-FRET); type: biochemical; settings: read-out: PARG Biochem IC50
Sequence (Q86W56 whole entry): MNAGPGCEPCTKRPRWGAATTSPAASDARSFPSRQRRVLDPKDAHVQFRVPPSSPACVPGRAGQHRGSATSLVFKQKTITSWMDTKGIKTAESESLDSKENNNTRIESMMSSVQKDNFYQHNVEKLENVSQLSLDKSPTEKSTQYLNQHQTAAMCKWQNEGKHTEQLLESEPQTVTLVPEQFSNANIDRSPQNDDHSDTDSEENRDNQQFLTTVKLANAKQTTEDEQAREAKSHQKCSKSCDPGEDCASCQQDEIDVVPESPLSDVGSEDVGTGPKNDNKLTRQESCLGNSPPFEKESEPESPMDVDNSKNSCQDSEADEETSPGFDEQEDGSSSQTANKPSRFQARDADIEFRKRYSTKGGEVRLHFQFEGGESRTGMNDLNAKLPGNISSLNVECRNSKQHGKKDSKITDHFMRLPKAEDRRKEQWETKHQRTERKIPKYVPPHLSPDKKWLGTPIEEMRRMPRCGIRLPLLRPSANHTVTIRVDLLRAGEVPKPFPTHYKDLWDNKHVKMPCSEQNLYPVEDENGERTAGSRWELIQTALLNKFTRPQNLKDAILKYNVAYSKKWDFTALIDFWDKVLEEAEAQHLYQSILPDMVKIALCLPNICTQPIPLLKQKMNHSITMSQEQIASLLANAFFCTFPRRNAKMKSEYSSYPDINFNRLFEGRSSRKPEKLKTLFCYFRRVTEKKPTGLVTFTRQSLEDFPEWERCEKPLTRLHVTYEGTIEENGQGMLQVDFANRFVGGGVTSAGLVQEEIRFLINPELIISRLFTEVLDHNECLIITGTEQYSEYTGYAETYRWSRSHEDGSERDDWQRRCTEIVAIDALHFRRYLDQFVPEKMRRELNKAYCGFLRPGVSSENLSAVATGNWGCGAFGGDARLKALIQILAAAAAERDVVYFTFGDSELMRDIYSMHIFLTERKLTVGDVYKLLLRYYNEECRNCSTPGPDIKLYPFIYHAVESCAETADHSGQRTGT

>  <compound>
Cc1cncc(Cn2c(=O)n(Cc3cnn(C)c3)c(=O)c3cc(S(=O)(=O)NC4(CF)CC4)ccc32)c1 [Example 539]

>  <readoutUnits>
nM

>  <IC50>
73

$$$$
>  <compound>
Cc1ccnc(Cn2c(=O)n(Cc3cnn(C)c3)c(=O)c3cc(S(=O)(=O)NC4(CF)CC4)ccc32)c1 [Example 571]

>  <readoutUnits>
nM

>  <IC50>
330

$$$$
>  <compound>
Cc1cc(Cn2c(=O)c3cc(S(=O)(=O)NC4(CF)CC4)ccc3n(C)c2=O)on1 [Example 514]

>  <readoutUnits>
nM

>  <IC50>
384

$$$$
>  <compound>
Cc1nc(Cn2c(=O)n(Cc3cnn(C)c3)c(=O)c3cc(S(=O)(=O)NC4(CF)CC4)ccc32)no1 [Example 546]

>  <readoutUnits>
nM

>  <IC50>
152

$$$$
>  <compound>
Cc1cnc(Cn2c(=O)n(Cc3cnn(C)c3)c(=O)c3cc(S(=O)(=O)NC4(CF)CC4)ccc32)cn1 [Example 569]

>  <readoutUnits>
nM

>  <IC50>
130

$$$$
>  <compound>
Cc1nnc(Cn2c(=O)[nH]c3ccc(S(=O)(=O)NC4(CF)CC4)cc3c2=O)s1 [Example 601]

>  <readoutUnits>
nM

>  <IC50>
710

$$$$
>  <compound>
Cc1nnc(Cn2c(=O)n(Cc3cnn(C)c3)c(=O)c3cc(S(=O)(=O)NC4(CF)CC4)ccc32)s1 [Example 583]

>  <readoutUnits>
nM

>  <IC50>
93

$$$$

Every entry's value here was drawn from patent US10239843B2.
